# procedure-summary: Compound cytotoxicity measured by an ATP content assay as a counter-screen for lead compounds in human astrocytoma cell line (SNB-19)
# condition-summary: SNB-19 astrocytoma viability, ATP luminescence; series mostly up to 46.1 µM
Inconclusive results are not listed. Active and inactive are the calls of the source. The call rests on the fitted dose curve; in most records, active means well fitted cell-killing curve with a large enough effect; inconclusive means small, poorly fitted or top-dose-only effect, or effect the other way; inactive means flat fitted curve, though single readings scatter.
property-label: outcome

Entry under review: "CCCC(=O)OC[C@@H](OC(=O)CCC)[C@@H](OC(=O)CCC)[C@H](Cn1c2nc(=O)[nH]c(=O)c-2nc2cc(C)c(C)cc21)OC(=O)CCC" . Reported outcome?
inactive

For "CN(C)c1cc(NC(=O)CNC(C)(C)C)c(O)c2c1C[C@@H]1C[C@H]3[C@H](N(C)C)C(=O)C(C(N)=O)=C(O)[C@@]3(O)C(=O)C1=C2O" , what is its reported outcome?
inactive

Sample "CC(C)(C)COc1ccc(-n2cc(C(=O)O)cn2)cc1C#N" — what was its outcome?
inactive
